Listed next: entries and their corresponding inhibition at 1 µM.
# tested_on: MAP4K-1 enzyme (Homo sapiens, UniProt Q92918)
# Sequence (Q92918 whole entry): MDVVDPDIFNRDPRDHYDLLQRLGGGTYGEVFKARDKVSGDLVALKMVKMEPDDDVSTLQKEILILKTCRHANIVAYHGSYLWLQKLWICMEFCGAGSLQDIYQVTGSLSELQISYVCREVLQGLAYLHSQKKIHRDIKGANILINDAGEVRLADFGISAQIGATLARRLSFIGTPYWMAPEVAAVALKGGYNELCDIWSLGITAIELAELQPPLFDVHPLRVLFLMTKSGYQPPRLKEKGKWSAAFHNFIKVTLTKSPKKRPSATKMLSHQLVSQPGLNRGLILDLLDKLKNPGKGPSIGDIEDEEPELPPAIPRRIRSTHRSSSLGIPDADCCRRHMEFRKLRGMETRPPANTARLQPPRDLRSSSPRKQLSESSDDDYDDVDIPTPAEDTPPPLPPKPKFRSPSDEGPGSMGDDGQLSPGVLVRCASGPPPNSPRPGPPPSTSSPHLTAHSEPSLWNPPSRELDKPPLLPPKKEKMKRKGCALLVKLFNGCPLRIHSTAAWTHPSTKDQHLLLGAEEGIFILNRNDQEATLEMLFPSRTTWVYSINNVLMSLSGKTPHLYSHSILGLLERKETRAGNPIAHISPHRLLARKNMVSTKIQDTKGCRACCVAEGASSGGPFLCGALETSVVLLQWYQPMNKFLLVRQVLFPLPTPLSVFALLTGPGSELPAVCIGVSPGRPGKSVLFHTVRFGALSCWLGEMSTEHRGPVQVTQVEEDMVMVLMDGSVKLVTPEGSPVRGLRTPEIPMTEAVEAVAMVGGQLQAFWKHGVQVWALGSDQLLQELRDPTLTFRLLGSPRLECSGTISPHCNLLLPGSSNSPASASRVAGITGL
# test_summary: FRET one step binding assay (tracer displacement)
# condition: 1 μM compound
Where a name gives a salt, the structure may show the parent alone.
Number only, in %; omit the unit.

| compound | numeric_value |
| --- | --- |
| COc1cc2c(cc1Nc1ncc(Cl)c(Nc3cccc(OS(=O)(=O)F)c3P(C)(C)=O)n1)CN(C)CC2 [Example 19, dihydrochloride] | 76.6 |
| COc1cc2c(cc1Nc1ncc(Cl)c(Nc3ccc(OS(=O)(=O)F)cc3P(C)(C)=O)n1)CNCC2 [Example 38, dihydrochloride] | 84.5 |
| COc1cc2c(cc1Nc1ncc(Cl)c(Nc3ccc(C(F)(F)F)cc3P(C)(C)=O)n1)CN(C)CC2 | 94.6 |

Then this compound:
// field: inhibition at 1 µM; key: COc1cc2c(cc1Nc1ncc(Cl)c(Nc3ccc(O[C@H]4CCOC4)cc3P(C)(C)=O)n1)CN(C)CC2 ; value = 84.2

====

# tested_on: MAP4K-1 enzyme (Homo sapiens, UniProt Q92918)
# test_summary: FRET one step binding assay (tracer displacement)
# condition: 10 μM compound
Counter-ions that a name gives are not always drawn.
Measured inhibition at 10 µM of individual entries
State the answer as a number, implicitly in %.

| molecule | tested_on | unit_symbol | inhibition at 10 µM |
| --- | --- | --- | --- |
| CN1CCc2cc(OC(F)F)c(Nc3ncc(Cl)c(Nc4ccc(OS(=O)(=O)F)cc4P(C)(C)=O)n3)cc2C1 [Example 10, dihydrochloride] | MAP4K-1 enzyme (Homo sapiens, UniProt Q92918) | % | 89 |
| COc1cc2c(cc1Nc1ncc(Cl)c(Nc3ccc(OS(=O)(=O)F)cc3P(C)(C)=O)n1)COCC2 [Example 28, hydrochloride] | MAP4K-1 enzyme (Homo sapiens, UniProt Q92918) | % | 75.9 |
| COc1cc2c(cc1Nc1ncc(Cl)c(Nc3ccc(OS(=O)(=O)F)cc3P(C)(C)=O)n1)CN(C)CC2 [Example 2, dihydrochloride] | MAP4K-1 enzyme (Homo sapiens, UniProt Q92918) | % | 82.1 |
| COc1cc2c(cc1Nc1ncc(Cl)c(Nc3cc(OS(=O)(=O)F)ccc3P(C)(C)=O)n1)CN(C)C(C)C2 (single isomer, unassigned; isomer 1) [Example 35] | MAP4K-1 enzyme (Homo sapiens, UniProt Q92918) | % | 79.1 |
| COc1cc2c(cc1Nc1ncc(Cl)c(Nc3ccc(OC(F)F)cc3P(C)(C)=O)n1)CN(C)CC2 [Example 45] | MAP4K-1 enzyme (Homo sapiens, UniProt Q92918) | % | 79 |

Okay, now this molecule:
Kindly note the recorded inhibition at 10 µM for Cl.Cl.[2H]C([2H])([2H])Oc1cc2c(cc1Nc1ncc(Cl)c(Nc3ccc(OS(=O)(=O)F)cc3P(C)(C)=O)n1)CN(C)CC2 [Example 5] , which is 82.5

====

# tested_on: MAP4K-1 enzyme (Homo sapiens, UniProt Q92918)
# test_summary: FRET one step binding assay (tracer displacement)
# condition: 1 μM compound
Counter-ions that a name gives are not always drawn.
Here the recorded inhibition at 1 µM is given for each entry.
Supply the numeric figure in %, leaving out any unit text.

| compound | result_type | unit_symbol | numeric_value |
| --- | --- | --- | --- |
| COc1cc2c(cc1Nc1ncc(Cl)c(Nc3cc(F)c(OS(=O)(=O)F)cc3P(C)(C)=O)n1)CN(C)CC2 [Example 27, dihydrochloride] | inhibition at 1 µM | % | 81.1 |

Recorded result, COc1cc2c(cc1Nc1ncc(C(N)=O)c(Nc3ccc(OS(=O)(=O)F)cc3P(C)(C)=O)n1)CN(C)CC2 [Example 3, dihydrochloride] , inhibition at 1 µM: 85.6

// sample COc1cc2c(cc1Nc1ncc(Cl)c(Nc3ccc(OS(=O)(=O)F)cc3P(C)(C)=O)n1)CN(C1COC1)CC2 [Example 16, dihydrochloride] , its inhibition at 1 µM was 87.3

Record summary for COc1cc2c(cc1Nc1ncc(Cl)c(Nc3ccc(OS(=O)(=O)F)cc3P(C)(C)=O)n1)C(C)N(C)CC2 (single isomer, unassigned; isomer 1) [Example 29] : reported inhibition at 1 µM = 76.5

Sample COc1cc2c(cc1Nc1ncc(Cl)c(Nc3ccc(O[C@@H]4CCOC4)cc3P(C)(C)=O)n1)CN(C)CC2 ; inhibition at 1 µM observed: 94.3

Recorded inhibition at 1 µM (compound COc1cc2c(cc1Nc1ncc(Cl)c(Nc3cc(OS(=O)(=O)F)ccc3P(C)(C)=O)n1)CN(C)CC2 [Example 18, dihydrochloride] ): 87.3

====

# tested_on: MAP4K-1 enzyme (Homo sapiens, UniProt Q92918)
# test_summary: FRET one step binding assay (tracer displacement)
# condition: 10 μM compound
# Method: This is a one step binding assay based on the binding and displacement of the labeled tracer, where compound addition is followed by addition of the anti-GST tagged europium (Eu) as the donor and Alexa Fluor-labeled tracer as the acceptor. Test compounds were dissolved in dimethylsulfoxide (DMSO) to prepare 10.0 mM stock solutions and diluted to the desired concentration. The final concentration of DMSO in the reaction was 3% (v/v). […] The activity was calculated as percent of control reaction. […]
Counter-ions that a name gives are not always drawn.
Answer false (0) if inhibition at 10 µM is under 90%, and true (1) if it is 90% or more.

Example entries and their recorded answers appear below.
| molecule | tested_on | category_label |
| --- | --- | --- |
| COc1cc2c(cc1Nc1ncc(Cl)c(Nc3ccc(OS(=O)(=O)F)cc3P(C)(C)=O)n1)C(C)(C)N(C)CC2 [Example 11, dihydrochloride] | MAP4K-1 enzyme (Homo sapiens, UniProt Q92918) | false (0) |
| COc1cc2c(cc1Nc1ncc(Cl)c(Nc3cc(OS(=O)(=O)F)ccc3P(C)(C)=O)n1)CN(C)CC2 [Example 18, dihydrochloride] | MAP4K-1 enzyme (Homo sapiens, UniProt Q92918) | false (0) |
| [2H]C([2H])([2H])Oc1cc2c(cc1Nc1ncc(Cl)c(Nc3ccc(OS(=O)(=O)F)cc3P(C)(C)=O)n1)C([2H])([2H])NCC2 [Example 40, dihydrochloride] | MAP4K-1 enzyme (Homo sapiens, UniProt Q92918) | false (0) |

Say whether COc1cc2c(cc1Nc1ncc(Cl)c(Nc3ncc(OS(=O)(=O)F)cc3P(C)(C)=O)n1)CN(C)CC2 [Example 20, dihydrochloride] shows inhibition at 10 µM of 90% or more.
false (0)

Test whether the molecule COc1cc2c(cc1Nc1ncc(Cl)c(Nc3ccc(S(C)(=N)=O)cc3P(C)(C)=O)n1)CN(C)CC2 (stereo not drawn) records inhibition at 10 µM of 90% or higher.
true (1)

====

# tested_on: MAP4K-1 enzyme (Homo sapiens, UniProt Q92918)
# test_summary: FRET one step binding assay (tracer displacement)
# condition: 1 μM compound
Counter-ions that a name gives are not always drawn.
Kindly return met if reported inhibition at 1 µM is no lower than 90%; return not met if it is lower.

| compound | category_label |
| --- | --- |
| COc1cc2c(cc1Nc1ncc(Cl)c(Nc3ccc(OC4COC4)cc3P(C)(C)=O)n1)CN(C)CC2 [Example 51] | met |

Kindly determine if inhibition at 1 µM recorded for COc1cc2c(cc1Nc1ncc(Cl)c(Nc3ccc(OC(F)F)cc3P(C)(C)=O)n1)CN(C)CC2 [Example 45] is above or exactly 90%.
not met

Exam item: decide whether the reported inhibition at 1 µM for COc1cc2c(cc1Nc1ncc(Cl)c(Nc3ccc(OS(=O)(=O)F)nc3P(C)(C)=O)n1)CN(C)CC2 [Example 21, dihydrochloride] is at least 90%.
not met

I'd appreciate it if you could say whether COc1cc2c(cc1Nc1ncc(Cl)c(Nc3cc(OS(=O)(=O)F)ccc3P(C)(C)=O)n1)CN(C)C(C)C2 (single isomer, unassigned; isomer 1) [Example 35] has inhibition at 1 µM at least equal to 90%.
not met

For this compound, is measured inhibition at 1 µM 90% or higher? COCCOc1ccc(Nc2nc(Nc3cc4c(cc3OC)CCN(C)C4)ncc2Cl)c(P(C)(C)=O)c1 [Example 50]
met

Hi, just wondering whether COc1cc2c(cc1Nc1ncc(Cl)c(Nc3ccc(OS(=O)(=O)F)cc3P(C)(C)=O)n1)CN(C)C(C)(C)C2 [Example 25, dihydrochloride] shows inhibition at 1 µM of 90% or higher.
not met

In plain terms: is recorded inhibition at 1 µM at least 90% for Cl.Cl.[2H]C([2H])([2H])Oc1cc2c(cc1Nc1ncc(Cl)c(Nc3ccc(OS(=O)(=O)F)cc3P(C)(C)=O)n1)CN(C)CC2 [Example 5] ?
not met

Form field: inhibition at 1 µM at least 90%? Entry: COc1cc2c(cc1Nc1ncc(Cl)c(Nc3ncc(OS(=O)(=O)F)cc3P(C)(C)=O)n1)C(C)N(C)CC2 (single isomer, unassigned; isomer 1) [Example 23]
not met

Please check the record [2H]C([2H])([2H])N1CCc2cc(OC)c(Nc3ncc(Cl)c(Nc4ccc(OS(=O)(=O)F)cc4P(C)(C)=O)n3)cc2C1 [Example 4, dihydrochloride] and state if its inhibition at 1 µM is at or above 90%.
not met

Check the entry COc1cc2c(cc1Nc1ncc(Cl)c(Nc3ccc(N(C)C(=O)C(F)F)cc3P(C)(C)=O)n1)CN(C)CC2 [Example 53] : does inhibition at 1 µM equal or exceed 90%?
not met
